# Study system: T1, His/Avi-CynoIL18BP (recombinant cynomolgus IL-18BP with His and Avi tags) (cynomolgus monkey)
# T1 construct: also called cynomolgus IL-18BP-Avi-His
# T1 chain: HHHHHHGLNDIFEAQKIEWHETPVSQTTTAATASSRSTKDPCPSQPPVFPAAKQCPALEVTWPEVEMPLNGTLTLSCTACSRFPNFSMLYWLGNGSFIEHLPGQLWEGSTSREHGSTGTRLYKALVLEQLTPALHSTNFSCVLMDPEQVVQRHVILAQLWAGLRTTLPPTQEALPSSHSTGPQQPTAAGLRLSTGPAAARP
# Measurement protocol: SPR Carterra LSA, IgG immobilized
Property name: pKd
Answers are plain numbers, as −log10 of the molar value.

# Binder, Property name, Quantitative result
records = [
    ("anti-IL18BP antibody BP-09 (antibody, human IgG1, V domains shown) VH: QVQLQQSGAELVRPGASVTLSCKASGYRFTDYAMHWVKQTPVHGLQWIGIIDPETGDTAFNQKFKGKATLTADKSSSTAYMELSSLTSEDSAVYYCTRPRGAMDYWGQGTSVTVSS VL: DIVMTQSHKFMSTSGGDRVSITCKASQDVGTAVAWYQQKPGISPKLLIYWASTRHTGVPDRFTGSGSGTDFTLAISNVQSEDLADYFCQQYSSHPYTFGGGTKLEIK", "pKd", 8.85),
    ("anti-IL18BP antibody BP-04 (antibody, V domains shown, also called BP-04 (hybridoma); BP-04 (parental)) VH: HVHLHQSGAELVRPGVSVKISCRGSGYTFTDYDVHWVKQSHAKSLEWIGVISTYYGDVGYNQEFKGKATMTLDKSSSTSYLELARLTSEDSAIYYCARSGTYYYGTRESHALDYWGQGTSVTVSS VL: DIQMTQSPASLSVSVGETVTITCRTSDNVYSNLAWYQQKQGKSPQLLVYGAINLADGVPSRFSGSGSDTQYSLKINNLQSEDFGSYYCQHFWGNPYTFGGGTKLEIK", "pKd", 8.52),
    ("anti-IL18BP antibody BP-08 (antibody, human IgG1, V domains shown) VH: QVQLQQPGAELVKPGASVKLSCKVSGYTFTSYWMHWVKQRPGQGLEWIGMIDPNSDSSRYNEKFKNRATLTADKSSSTAFMQFSSLTSEDSAVYYCARSRLGQDYWGQGTTLTVSS VL: DIVMTQSHKFMSTSVGDRVSITCKASQDVSTAVAWYQQKPGQSPKLLIYWASTRHTGVPDRFTGSESGTDYTLIISSVQAEDLALYYCQQHFSTPYTFGGGTKLEIK", "pKd", 7.38),
]

Lab note: next binder to report on.
pKd recorded for this binder, anti-IL18BP antibody BP-13 (antibody, human IgG1, V domains shown) VH: QVQLQQSGAELVRPGASVTLSCKASGYTFTDYEMHWVKQTPVHGLEWIGPIDPETGDTAYNQKFKGQATLTADKSSSTAYMELSSLTSEDSAVYYCTRGSRGVFDYWGQGTALTVSS VL: DIVMTQSHKFMSTSVGDRVSITCKASQDVGTAVAWYQQKPGQSPKLLIYWASARHTGVPDRFTGSGSGTDFTLTISNVQSEDLADYFCQHYFNFPRTFGGGTKLEIT , is 9.52

// provenance: patent US20250333523A1
